Hey, just so you know, these numbers are from paper PMC7570497.

Target Under Test: DOR (Homo sapiens, UniProt P41143)
Sequence (P41143 whole entry): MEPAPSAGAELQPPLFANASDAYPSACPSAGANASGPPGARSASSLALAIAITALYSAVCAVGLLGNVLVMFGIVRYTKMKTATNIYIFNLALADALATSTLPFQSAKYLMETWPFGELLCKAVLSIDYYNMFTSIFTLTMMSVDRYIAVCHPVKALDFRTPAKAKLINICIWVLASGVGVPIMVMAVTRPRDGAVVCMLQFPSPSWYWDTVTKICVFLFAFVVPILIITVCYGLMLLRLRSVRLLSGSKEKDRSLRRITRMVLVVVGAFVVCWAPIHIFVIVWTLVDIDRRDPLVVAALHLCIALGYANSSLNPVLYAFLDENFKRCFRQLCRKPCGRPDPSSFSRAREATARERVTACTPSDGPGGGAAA
Assay Procedure: Calcium mobilization assay, agonist mode, DOR
Assay type: cell-based
Set-up: expressed in transfected cells; host or cells: CHO cells (gift from Prof. Girolamo Calo, Ferrara University)
Condition Notes: CHO cells co-expressing DOR and GαqG66Di5; Fluo-4 AM; reference agonist DPDPE; inactive = inactive up to 10 μM; mean ± SEM, n ≥ 5
Procedure: Calcium mobilization assay was performed as reported previously. CHO cells stably co-expressing human MOR or KOR and the C-terminally modified Gαqi5 and CHO cells co-expressing DOR and the GαqG66Di5 protein were used for the tests. […] Ligand efficacy was expressed as intrinsic activity (α) calculated as a ratio of the peptide Emax to Emax of the standard agonist.
Bridge positions count the residues as written; N and C are the ends. Square brackets hold non-standard residues; d marks the D form. Peptide text beside a SMILES is read from it. Dmt = Cc1cc(O)cc(C)c1C[C@H](N)C(=O)O; Tic = O=C(O)[C@@H]1Cc2ccccc2CN1; dDap = NC[C@@H](N)C(=O)O
Property Label: DOR pEC50 (CL95%)

Compound	Measured Result
Cc1cc(O)cc(C)c1C[C@H](N)C(=O)N1Cc2ccccc2C[C@H]1C(=O)N[C@@H]1CNC(=O)C[C@@H](C(N)=O)NC(=O)[C@H](Cc2ccccc2)NC(=O)[C@H](Cc2ccccc2)NC1=O [compound 4, Dmt-Tic-c[D-Dap-Phe-Phe-Asp]NH2] (H-[Dmt][Tic][dDap]FFD-NH2; lactam 3-6)	inactive
Cc1cc(O)cc(C)c1C[C@H](N)C(=O)N1Cc2ccccc2C[C@H]1C(=O)N[C@@H]1CCCCNC(=O)C[C@@H](C(N)=O)NC(=O)[C@H](Cc2ccccc2)NC(=O)[C@H](Cc2ccccc2)NC1=O [compound 1, Dmt-Tic-c[D-Lys-Phe-Phe-Asp]NH2] (H-[Dmt][Tic][dK]FFD-NH2; lactam 3-6)	inactive

###

Target Under Test: human MOR (Homo sapiens, UniProt P35372)
Sequence (P35372 whole entry): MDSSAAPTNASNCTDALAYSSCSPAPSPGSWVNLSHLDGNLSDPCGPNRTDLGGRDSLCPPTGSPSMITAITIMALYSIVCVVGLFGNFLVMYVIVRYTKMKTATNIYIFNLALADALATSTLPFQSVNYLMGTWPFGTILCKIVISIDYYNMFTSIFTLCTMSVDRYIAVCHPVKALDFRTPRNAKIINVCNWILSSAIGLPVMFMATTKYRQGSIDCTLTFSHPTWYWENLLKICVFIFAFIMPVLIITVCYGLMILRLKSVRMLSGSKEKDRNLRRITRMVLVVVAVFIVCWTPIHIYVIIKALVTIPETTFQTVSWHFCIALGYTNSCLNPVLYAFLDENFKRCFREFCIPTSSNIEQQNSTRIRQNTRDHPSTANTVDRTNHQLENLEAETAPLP
Assay Procedure: Calcium mobilization assay, agonist mode, MOR
pEC50: −log10 of the molar value. Bridge positions count the residues as written; N and C are the ends. Square brackets hold non-standard residues; d marks the D form. Peptide text beside a SMILES is read from it. d2Nal = N[C@H](Cc1ccc2ccccc2c1)C(=O)O; Dmt = Cc1cc(O)cc(C)c1C[C@H](N)C(=O)O; Tic = O=C(O)[C@@H]1Cc2ccccc2CN1

Compound	Target Under Test	pEC50
Cc1cc(O)cc(C)c1C[C@H](N)C(=O)N1Cc2ccccc2C[C@H]1C(=O)N[C@@H]1CCCCNC(=O)C[C@@H](C(N)=O)NC(=O)[C@H](Cc2ccccc2)NC1=O [compound 5, Dmt-Tic-c[D-Lys-Phe-Asp]NH2] (H-[Dmt][Tic][dK]FD-NH2; lactam 3-5)	human MOR (Homo sapiens, UniProt P35372)	6.09
Cc1cc(O)cc(C)c1C[C@H](N)C(=O)N1Cc2ccccc2C[C@H]1C(=O)N[C@@H]1CCCCNC(=O)C[C@@H](C(N)=O)NC(=O)[C@@H](Cc2ccc3ccccc3c2)NC(=O)[C@H](Cc2ccccc2)NC1=O [compound 2, Dmt-Tic-c[D-Lys-Phe-D-2Nal-Asp]NH2] (H-[Dmt][Tic][dK]F[d2Nal]D-NH2; lactam 3-6)	human MOR (Homo sapiens, UniProt P35372)	6.21
Cc1cc(O)cc(C)c1C[C@H](NC(=O)[C@@H]1Cc2ccccc2CN1C(=O)[C@@H]1CC(=O)NCCCC[C@@H](NC(=O)[C@@H]2Cc3ccccc3CN2C(=O)[C@@H](N)Cc2c(C)cc(O)cc2C)C(=O)N[C@@H](Cc2ccccc2)C(=O)N1)C(N)=O [compound 6, Dmt-Tic-c[D-Lys-Phe-Asp]-Tic-Dmt-NH2] (H-[Dmt][Tic][dK]FD[Tic][Dmt]-NH2; lactam 3-5)	human MOR (Homo sapiens, UniProt P35372)	6.48
